- SUBJECT OF TEST: Vascular endothelial growth factor receptor 2 (Homo sapiens)
- Sequence (P35968 whole entry): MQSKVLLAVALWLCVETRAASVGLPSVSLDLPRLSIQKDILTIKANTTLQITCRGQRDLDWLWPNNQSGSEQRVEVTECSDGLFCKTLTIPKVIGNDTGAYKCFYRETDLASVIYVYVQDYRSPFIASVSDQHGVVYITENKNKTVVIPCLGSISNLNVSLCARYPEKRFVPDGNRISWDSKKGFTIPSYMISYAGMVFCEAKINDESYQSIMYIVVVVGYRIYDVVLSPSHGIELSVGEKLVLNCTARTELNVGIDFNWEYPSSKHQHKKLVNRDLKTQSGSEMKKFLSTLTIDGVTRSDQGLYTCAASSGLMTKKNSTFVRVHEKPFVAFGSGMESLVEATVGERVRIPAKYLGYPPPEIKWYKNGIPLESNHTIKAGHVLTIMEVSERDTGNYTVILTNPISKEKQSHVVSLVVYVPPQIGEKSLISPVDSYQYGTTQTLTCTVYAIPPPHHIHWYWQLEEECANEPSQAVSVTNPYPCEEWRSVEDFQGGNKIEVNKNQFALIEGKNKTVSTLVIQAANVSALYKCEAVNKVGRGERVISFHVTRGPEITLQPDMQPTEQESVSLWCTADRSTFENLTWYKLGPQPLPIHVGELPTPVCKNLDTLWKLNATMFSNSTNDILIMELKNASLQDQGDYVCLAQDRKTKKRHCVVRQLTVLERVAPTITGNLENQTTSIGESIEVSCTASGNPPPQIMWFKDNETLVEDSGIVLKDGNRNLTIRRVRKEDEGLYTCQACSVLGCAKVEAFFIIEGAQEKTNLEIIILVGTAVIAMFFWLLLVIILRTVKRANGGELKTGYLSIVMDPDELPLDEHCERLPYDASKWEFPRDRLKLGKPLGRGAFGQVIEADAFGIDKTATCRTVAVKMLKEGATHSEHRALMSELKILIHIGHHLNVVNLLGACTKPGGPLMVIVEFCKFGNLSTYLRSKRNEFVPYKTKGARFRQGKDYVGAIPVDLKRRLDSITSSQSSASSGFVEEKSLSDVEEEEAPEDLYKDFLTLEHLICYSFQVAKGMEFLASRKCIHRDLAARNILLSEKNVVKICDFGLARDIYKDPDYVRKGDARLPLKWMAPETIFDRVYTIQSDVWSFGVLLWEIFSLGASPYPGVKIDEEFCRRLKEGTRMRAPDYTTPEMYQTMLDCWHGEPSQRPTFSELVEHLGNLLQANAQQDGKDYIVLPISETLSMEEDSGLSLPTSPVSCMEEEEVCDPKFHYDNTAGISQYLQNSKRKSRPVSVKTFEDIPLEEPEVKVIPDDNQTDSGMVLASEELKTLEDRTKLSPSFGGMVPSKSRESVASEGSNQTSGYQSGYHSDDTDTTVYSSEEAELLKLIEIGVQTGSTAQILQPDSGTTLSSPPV
- ASSAY TEXT: Inhibition of VEGFR2 assessed as inhibition of phosphorylation in human 293 cells by cell-based ELISA
- Format: functional, HEK293
OBSERVABLE: IC50 (nM)

Examples with their reported IC50 follow.
SMILES: Cc1cc(C(=O)Nc2ccc(OC(F)(F)F)cc2)n(CCc2ccncc2)n1
SUBJECT OF TEST: Vascular endothelial growth factor receptor 2 (Homo sapiens)
IC50 [nM]: 1340
//
SMILES: CC(C)(C)c1ccc(NC(=O)c2nccn2CCc2ccncc2)cc1
SUBJECT OF TEST: Vascular endothelial growth factor receptor 2 (Homo sapiens)
IC50 [nM]: 2250

A: Cc1cc(C(=O)Nc2ccc(Cl)cc2)n(CCc2ccncc2)n1
B: O=C(Nc1ccc(C(F)(F)F)cc1)c1ccnn1CCc1ccncc1
C: O=C(Nc1ccc(Cl)cc1)c1nccn1CCc1ccncc1
D: CC(C)(C)c1ccc(NC(=O)c2ccnn2CCc2ccncc2)cc1
### Prompt Please list the entries, largest IC50 first. Response field: labels, in requested order.
### Response A, C, B, D
(A: 2540 nM, C: 1320 nM, B: 48 nM, D: 33 nM)
